experiment: Hydrolysis studies of PEG-acetal cleavable lipids; assay type: physicochemical; conditions: pH at which hydrolysis was observed; 37° C., pH range 3 to 7; TLC, confirmed by mass spectrometry
Listed here: items and their measured Hydrolysis pH.
Lab note: jot the number down without any unit.

Take a look at these entries with their results.
CCCCCCCC/C=C\CCCCCCCCOCC(C[N+](C)(C)CCCCCC(OCCOCCOC)OCCOCCOC)OCCCCCCCC/C=C\CCCCCCCC (stereo not drawn) = 5.0
CCCCCCCC/C=C\CCCCCCCCOCC(C[N+](C)(C)CCCCCC(OCCOCCO)OCCOCCO)OCCCCCCCC/C=C\CCCCCCCC (stereo not drawn) = 3.5
CCCCCCCC/C=C\CCCCCCCCOCC(C[N+](C)(C)CCCCCC(OCCOCCOCCOCCO)OCCOCCOCCOCCO)OCCCCCCCC/C=C\CCCCCCCC (stereo not drawn) = 3.0
CCCCCCCC/C=C\CCCCCCCCOCC(C[N+](C)(C)CCCCCCCC(OCCOCCO)OCCOCCO)OCCCCCCCC/C=C\CCCCCCCC (stereo not drawn) = 4.0
CCCC/C=C\CCCCCCCCCCOCC(C[N+](C)(C)CCCCCC(OCCOCCO)OCCOCCO)OCCCCCCCCCC/C=C\CCCC (stereo not drawn) = 3.0

Need Hydrolysis pH of CCCCCCCC/C=C\CCCCCCCCOCC(C[N+](C)(C)CCCC(OCCOCCO)OCCOCCO)OCCCCCCCC/C=C\CCCCCCCC (stereo not drawn) , thanks.
5.5
